# Test system: SL1 RNA
# ASSAY REMARKS: RNA-detected NMR binding site mapping (2D-1H,1H-TOCSY and 1D-1H)
# Design: species or system SARS-CoV-2
# STUDY CONDITIONS: 2D TOCSY; RNA 150 μM, compound 1 mM, 298 K
Can you tell me 1H,1H CSPs [ppm] C34H5-H6 for the items I'm about to list?
Give a bare numeral; the unit ppm is implied.

Memo: "CNC(=O)Nc1nc2c(OC)cc(OC)cc2s1" , reported 1H,1H CSPs [ppm] C34H5-H6: 0.0025

Memo: "COc1ccc(-c2nnc(NC(=O)CN(C)C)s2)cc1OC" , reported 1H,1H CSPs [ppm] C34H5-H6: 0.0204

Memo: "COc1ccc2nc(NC(=O)CN(C)C)sc2c1" , reported 1H,1H CSPs [ppm] C34H5-H6: 0.0081

Memo: "CC(=O)c1ccc(NC(=O)CN2CCCC2)cc1" , reported 1H,1H CSPs [ppm] C34H5-H6: 0.0021

Memo: "CNC(=N)Nc1nc2ccc(OC)cc2s1" , reported 1H,1H CSPs [ppm] C34H5-H6: 0.0072

Memo: "CNC(=O)Nc1nc2ccc(OC)cc2s1" , reported 1H,1H CSPs [ppm] C34H5-H6: 0.0054

Memo: "COc1ccc2nc(NC(=O)CN3CCC[C@H](N)C3)sc2c1" , reported 1H,1H CSPs [ppm] C34H5-H6: 0.0079

Memo: "CNC(=O)Nc1nc2c(O)cc(O)cc2s1" , reported 1H,1H CSPs [ppm] C34H5-H6: 0.0087

These entries and their values trace back to paper PMC12356538.
